Biological target: recombinant human 11 β-HSD1 (Homo sapiens)
Sequence (P28845 whole entry): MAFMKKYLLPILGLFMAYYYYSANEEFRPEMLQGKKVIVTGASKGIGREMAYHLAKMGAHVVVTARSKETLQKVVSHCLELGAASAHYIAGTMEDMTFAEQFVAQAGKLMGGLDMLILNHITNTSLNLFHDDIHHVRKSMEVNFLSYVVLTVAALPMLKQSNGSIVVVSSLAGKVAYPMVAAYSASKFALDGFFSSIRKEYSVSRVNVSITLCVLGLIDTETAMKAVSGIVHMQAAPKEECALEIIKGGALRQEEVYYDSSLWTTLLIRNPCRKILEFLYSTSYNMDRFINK
Assay: 11 β-HSD1 SPA Assay (Scintillation Proximity Assay)
pIC50: −log10 of the molar value.
recorded.metric: pIC50

>>> assay_value("CC(C)(Oc1c(F)cc(F)cc1F)C(=O)N[C@H]1C[C@H]2CC[C@@H](C1)N2c1ccc(S(N)(=O)=O)cn1")
"> 6.70"
>>> assay_value("CC(C)(Oc1ccc(Cl)cc1OC(F)(F)F)C(=O)N[C@H]1C[C@H]2CC[C@@H](C1)N2c1ccc(C(=O)NC2(CO)CC2)cn1")
"> 6.70"
>>> assay_value("CC(C)(Oc1ccc(Cl)cc1Cl)C(=O)N[C@H]1C[C@H]2CC[C@@H](C1)N2c1ccc(NC(=O)CC(F)(F)F)cc1Cl")
"> 5.70"
>>> assay_value("CC(C)(Oc1ccc(Cl)cc1S(N)(=O)=O)C(=O)N[C@H]1C[C@H]2CC[C@@H](C1)N2c1ccc(C(=O)NCC(F)(F)F)cn1")
"> 5.70"
>>> assay_value("CC(C)(Oc1cc(Cl)c(CO)cc1Cl)C(=O)N[C@H]1C[C@H]2CC[C@@H](C1)N2c1ccc(C(=O)NCC(F)F)cn1")
"> 6.70"
>>> assay_value("CC(C)(Oc1ccc(Cl)c(Cl)c1)C(=O)N[C@H]1C[C@H]2CC[C@@H](C1)N2c1ccc(S(C)(=O)=O)cc1")
"> 5.70"
